molecular target: HIV-1 Env of pseudovirus Du172.17 (HIV-1); experiment: cell-based or functional assay
recorded metric: neutralization IC80 (µg/mL)
Write down the numeric answer in µg/mL and omit the unit.

| binder | neutralization IC80 (µg/mL) |
| --- | --- |
| MS-84 (antibody, V domains shown) VH: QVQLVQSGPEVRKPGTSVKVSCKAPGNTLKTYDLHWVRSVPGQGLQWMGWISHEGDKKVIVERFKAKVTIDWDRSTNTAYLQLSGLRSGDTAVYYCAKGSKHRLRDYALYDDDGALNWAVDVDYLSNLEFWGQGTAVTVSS VL: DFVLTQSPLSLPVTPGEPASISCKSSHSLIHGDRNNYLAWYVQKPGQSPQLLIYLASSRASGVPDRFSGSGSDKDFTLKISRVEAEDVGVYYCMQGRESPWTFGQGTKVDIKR | 6.55 |

Moving on to the next binder.
What value of measured neutralization IC80 is listed for MS-77 (antibody, V domains shown) VH: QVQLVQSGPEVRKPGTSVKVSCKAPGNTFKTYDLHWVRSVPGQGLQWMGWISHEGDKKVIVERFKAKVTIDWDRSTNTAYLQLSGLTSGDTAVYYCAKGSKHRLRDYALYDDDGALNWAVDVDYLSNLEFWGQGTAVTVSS VL: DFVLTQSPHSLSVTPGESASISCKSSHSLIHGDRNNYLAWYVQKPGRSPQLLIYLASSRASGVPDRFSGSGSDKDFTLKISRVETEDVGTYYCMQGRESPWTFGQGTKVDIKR ?
12.2
